# test_target: Human FXa (Homo sapiens)
Structures can show the parent of a compound that is named as a salt.
property_measured: pIC50
Please note pIC50 is a logarithmic value: minus log10 of concentration in mol/L. Answer with that number alone.

>>> recorded_result("CCOC(=O)C1(COc2ccc3ccc(C(=N)N)cc3c2)CCN(c2ccncc2)CC1 [Example 40, Dihydrochloride]")
6.30

Look up pIC50: N=C(N)c1ccc2c(c1)nc(CN(C(=O)C(=O)O)C1CCN(c3ccncc3)CC1)n2CC(=O)NC1CCCCC1 [Example 61, Dihydrochloride] 6.52

Look up pIC50: N=C(N)N1CCc2ccc(OCC3CCN(CCO)CC3)cc2C1 [Example 21, Dihydrochloride] 6.15

Look up pIC50: N=C(N)N1CCc2ccc(OCC3(C(=O)O)CCN(c4ccncn4)CC3)cc2C1 [Example 14, Dihydrochloride] 7.00

Look up pIC50: N/C(=N/O)N1CCc2ccc(OCC3CCN(c4ccncc4)CC3)cc2C1 [Example 4, Dihydrochloride] 6.22

Look up pIC50: N=C(N)N1CCc2ccc(OCC3CCN(c4ccncc4)CC3)cc2C1 [Example 1, Dihydrochloride] 7.22

Look up pIC50: COC(=O)c1cnccc1N1CCC(COc2ccc3c(c2)CN(C(=N)N)CC3)CC1 [Example 34, Dihydrochloride] 6.70

====

# test_target: Human FXa (Homo sapiens, UniProt P00742)
# Construct: Human FXa [Enzyme research Laboratories (USA)] enzyme; purchased Enzyme Research Laboratories (USA)
# protocol_summary: Oral administration test in mouse, human FXa inhibitory activity in serum
# Type: in vivo
# settings: ICR mice, 180 minutes, mean ± S.D., n = 3
# Sequence (P00742 235-488 limits assumed): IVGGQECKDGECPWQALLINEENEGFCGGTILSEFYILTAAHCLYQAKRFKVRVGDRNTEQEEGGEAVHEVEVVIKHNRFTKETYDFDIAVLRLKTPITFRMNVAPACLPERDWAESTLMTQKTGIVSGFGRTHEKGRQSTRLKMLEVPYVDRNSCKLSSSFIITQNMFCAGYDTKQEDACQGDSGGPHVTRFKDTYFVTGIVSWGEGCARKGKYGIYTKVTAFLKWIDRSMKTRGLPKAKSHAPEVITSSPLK
# Sequence (P00742 41-179 limits assumed): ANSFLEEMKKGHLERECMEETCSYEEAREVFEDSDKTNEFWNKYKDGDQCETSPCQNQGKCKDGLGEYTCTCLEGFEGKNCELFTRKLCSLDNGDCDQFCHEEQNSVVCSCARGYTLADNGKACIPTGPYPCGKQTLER
Counter-ions that a name gives are not always drawn.
property_measured: inhibition at 10 mg/kg
Reply with the number and its unit after it.

>>> recorded_result("CC(=N)N1CC[C@H](Oc2ccc([C@H](Cc3ccc4ccc(C(=N)N)cc4c3)C(=O)O)cc2)C1 [Comparative Example 1, reference compound]")
"6%"

Look up inhibition at 10 mg/kg: CC(=N)N1CCC(Oc2ccc(N(Cc3nc4cc(C(=N)N)ccc4n3CC(=O)NC3CCCCC3)C(=O)c3ccc(C(=O)O)cc3)cc2)CC1 12%

Look up inhibition at 10 mg/kg: N=C(N)N1CCc2ccc(OCC3(C(=O)O)CCN(c4ccncc4)CC3)cc2C1 [Example 7, Dihydrochloride] 18%

Look up inhibition at 10 mg/kg: CC(=N)N1CCC(Oc2ccc(N(Cc3nc4cc(C(=N)N)ccc4n3CC(=O)N[C@@H](C)c3ccccc3)C(=O)c3ccc(C(=O)O)cc3)cc2)CC1 [Example 17, Dihydrochloride] 21%

====

Heads up, these compounds all have IC50 values measured for Human FIIa (Homo sapiens).
Structures can show the parent of a compound that is named as a salt.

Here are 2 compounds together with their reported answers.
>>> recorded_result("CCOC(=O)CN(Cc1nc2cc(C(=N)N)ccc2n1CC(=O)NC1CCCCC1)c1ccc(OC2CCN(C(C)=N)CC2)cc1 [Example 62, Dihydrochloride]")
"> 10 µM"
>>> recorded_result("N=C(N)c1ccc2c(c1)nc(CN(C(=O)C(=O)O)C1CCN(c3ccncc3)CC1)n2CC(=O)NC1CCCCC1 [Example 61, Dihydrochloride]")
"> 10 µM"

Look up IC50: N/C(=N/O)N1CCc2ccc(OCC3CCN(c4ccncc4)CC3)cc2C1 [Example 4, Dihydrochloride] > 10 µM

====

# test_target: Human FXa (Homo sapiens, UniProt P00742)
pIC50: −log10 of the molar value. Counter-ions that a name gives are not always drawn.
Binary call on pIC50: satisfied from 7 upward, not satisfied beneath that.

Below, 2 molecules whose answers are already recorded.
>>> discrete_label("CC(=N)N1CCC(Oc2ccc(N(Cc3nc4cc(C(=N)N)ccc4n3C/C=C/c3ccccc3)C(=O)c3ccc(C(=O)O)cc3)cc2)CC1 [Example 109, Dihydrochloride]")
"not satisfied"
>>> discrete_label("N=C(N)N1CCc2ccc(OCC3CCN(c4ccnc5ccccc45)CC3)cc2C1 [Example 2, Dihydrochloride]")
"not satisfied"

Textbook exercise: given the entry N=C(N)N1CCc2ccc(SCCC3(C(=O)O)CCN(c4ccncc4)CC3)cc2C1 [Example 44, Dihydrochloride] , state whether its pIC50 is greater than or equal to 7. not satisfied

Textbook exercise: given the entry CCOC(=O)C(=O)N(Cc1nc2cc(C(=N)N)ccc2n1CC(=O)NC1CCCCC1)C1CCN(c2ccncc2)CC1 [Example 60, Dihydrochloride] , state whether its pIC50 is greater than or equal to 7. not satisfied

Textbook exercise: given the entry N=C(N)c1ccc2c(c1)nc(CN(C(=O)c1ccc(C(=O)O)cc1)c1ccc(OC3CCN(C(=N)N)CC3)cc1)n2CC(=O)NC1CCCCC1 [Example 65, Dihydrochloride] , state whether its pIC50 is greater than or equal to 7. satisfied

====

# test_target: Human FXa (Homo sapiens, UniProt P00742)
# Construct: Human FXa [Enzyme research Laboratories (USA)] enzyme; purchased Enzyme Research Laboratories (USA)
# protocol_summary: Intravenous administration test in mouse, human FXa inhibitory activity in serum
# Assay type: in vivo
# settings: ICR mice, i.v., 1 mg/kg, 60 minutes, mean ± S.D., n = 3
Where a name gives a salt, the structure may show the parent alone.
In this section we review reported inhibition at 1 mg/kg values for a set of molecules.
Express it in %; write the number only.

Here are 4 molecules together with their reported answers.
>>> recorded_result("CCN=C(N)N1CCC(Oc2ccc(N(Cc3nc4cc(C(=N)N)ccc4n3CC(=O)NC3CCCCC3)C(=O)c3ccc(C(=O)O)cc3)cc2)CC1 [Example 112, Dihydrochloride]")
23
>>> recorded_result("N=C(N)c1ccc2c(c1)nc(CN(C(=O)c1ccc(C(=O)O)cc1)c1ccc(OC3CCN(C(=N)N)CC3)cc1)n2CC(=O)NC1CCCCC1 [Example 65, Dihydrochloride]")
17
>>> recorded_result("CC(=N)N1CCC(Oc2ccc(N(Cc3nc4cc(C(=N)N)ccc4n3CC(=O)N[C@@H](C)c3ccccc3)C(=O)c3ccc(C(=O)O)cc3)cc2)CC1 [Example 17, Dihydrochloride]")
41
>>> recorded_result("COC(=O)c1ccc(C(=O)N(Cc2nc3cc(C(=N)N)ccc3n2CC(=O)NC2CCCCC2)c2ccc(OC3CCN(C(=N)N)CC3)cc2)cc1 [Example 64, Dihydrochloride]")
28

Give recorded inhibition at 1 mg/kg with Human FXa (Homo sapiens, UniProt P00742) for the following molecule: N=C(N)N1CCc2ccc(OCC3(C(=O)O)CCN(c4ccncc4)CC3)cc2C1 [Example 7, Dihydrochloride] 46

Give recorded inhibition at 1 mg/kg with Human FXa (Homo sapiens, UniProt P00742) for the following molecule: CC(=N)N1CC[C@H](Oc2ccc([C@H](Cc3ccc4ccc(C(=N)N)cc4c3)C(=O)O)cc2)C1 [Comparative Example 1, reference compound] 0

Give recorded inhibition at 1 mg/kg with Human FXa (Homo sapiens, UniProt P00742) for the following molecule: CC(=N)N1CCC(Oc2ccc(N(Cc3nc4cc(C(=N)N)ccc4n3CC(=O)Nc3ccc(OCc4ccccc4)cc3)C(=O)c3ccc(C(=O)O)cc3)cc2)CC1 [Example 18, Dihydrochloride] 40

Give recorded inhibition at 1 mg/kg with Human FXa (Homo sapiens, UniProt P00742) for the following molecule: CC(=N)N1CCC(Oc2ccc(N(Cc3nc4cc(C(=N)N)ccc4n3CC(=O)NC3CCCCC3)C(=O)c3ccc(C(=O)O)cc3)cc2)CC1 16

====

# test_target: Human FXa (Homo sapiens)
# Construct: Human FXa [Enzyme research Laboratories (USA)] enzyme; purchased Enzyme Research Laboratories (USA)
# protocol_summary: Intravenous administration test in mouse, human FXa inhibitory activity in serum
# Format: in vivo
# settings: ICR mice, i.v., 1 mg/kg, 30 minutes, mean ± S.D., n = 3
Structures can show the parent of a compound that is named as a salt.
property_measured: inhibition at 1 mg/kg (%)
Express it in %; write the number only.

Here are 2 compounds together with their reported answers.
>>> recorded_result("CC(=N)N1CCC(Oc2ccc(N(Cc3nc4cc(C(=N)N)ccc4n3CC(=O)N[C@@H](C)c3ccccc3)C(=O)c3ccc(C(=O)O)cc3)cc2)CC1 [Example 17, Dihydrochloride]")
69
>>> recorded_result("CC(=N)N1CCC(Oc2ccc(N(Cc3nc4cc(C(=N)N)ccc4n3CC(=O)NC3CCCCC3)C(=O)c3ccc(C(=O)O)cc3)cc2)CC1 [Example 63]")
46

The record that follows has no inhibition at 1 mg/kg shown yet.
Look up inhibition at 1 mg/kg: N=C(N)N1CCc2ccc(OCC3(C(=O)O)CCN(c4ccncc4)CC3)cc2C1 [Example 7, Dihydrochloride] 54

====

# test_target: Human FIIa (Homo sapiens)
# Construct: purchased Sigma
# protocol_summary: Determination of anti-factor IIa (FIIa) activity, synthetic substrate S-2238
# Assay type: biochemical
# settings: S-2238, 37° C., pH 8.4, read-out: Experimental Example 2: anti-FIIa activity, IC50
pIC50: −log10 of the molar value. Counter-ions that a name gives are not always drawn.
In this section we review reported pIC50 values for a set of compounds.

Here are 3 compounds together with their reported answers.
>>> recorded_result("COC(=O)c1ccc(C(=O)N(Cc2nc3cc(C(=N)N)ccc3n2CC(=O)NC2CCCCC2)c2ccc(OC3CCN(C(=N)N)CC3)cc2)cc1 [Example 64, Dihydrochloride]")
"< 5.00"
>>> recorded_result("CCN=C(N)N1CCC(Oc2ccc(N(Cc3nc4cc(C(=N)N)ccc4n3CC(=O)NC3CCCCC3)C(=O)c3ccc(C(=O)O)cc3)cc2)CC1 [Example 112, Dihydrochloride]")
"< 5.00"
>>> recorded_result("CC(=N)N1CCC(Oc2ccc(OCc3nc4cc(C(=N)N)ccc4n3CC(=O)NC[C@H]3CC[C@H](C(=O)O)CC3)cc2)CC1 [Example 53, Dihydrochloride]")
"< 5.00"

Look up pIC50: N=C(N)N1CCc2ccc(OCC3CCN(c4ccncc4CCC(=O)O)CC3)cc2C1 [Example 89, Dihydrochloride] < 5.00

Look up pIC50: CCOC(=O)C1(COc2ccc3c(c2)CN(C(=N)N)CC3)CCN(c2ccncc2)CC1 [Example 6, Dihydrochloride] < 5.00

Look up pIC50: CCOC(=O)C1(COc2ccc3c(c2)CN(C(=N)N)CC3)CCN(c2cc(C)nc(C)c2)CC1 [Example 10, Dihydrochloride] < 5.00

Look up pIC50: CC(=N)N1CCC(Oc2ccc(N(Cc3nc4cc(C(=N)N)ccc4n3CC(=O)N[C@@H](C)c3ccccc3)C(=O)c3ccc(C(=O)O)cc3)cc2)CC1 [Example 17, Dihydrochloride] < 5.00

Look up pIC50: N=C(N)N1CCc2ccc(OCC3CCN(Cc4ccncc4)CC3)cc2C1 [Example 22, Trihydrochloride] < 5.00

Look up pIC50: Cc1cc(N2CCC(COc3ccc4c(c3)CN(C(=N)N)CC4)(C(=O)O)CC2)ccn1 [Example 13, Dihydrochloride] < 5.00

Look up pIC50: CC(=N)N1CCC(Oc2ccc(N(Cc3nc4cc(C(=N)N)ccc4n3C/C=C/c3ccccc3)C(=O)c3ccc(C(=O)O)cc3)cc2)CC1 [Example 109, Dihydrochloride] < 5.00
